# Tested on: Plasmodium falciparum Sir2 (PF13_0152, Sir2A)
# Assay Notes: pfSir2 binders on small-molecule microarrays, primary screen, biochemical, small-molecule microarray, 635 nm fluorescence (AID 1098);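 further: score merges spot fluorescence intensity with its signal-to-noise ratio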
# Reported Conditions: small-molecule microarray binding, fluorescence 635 nm; higher = more signal
Recorded Endpoint: composite z-score

Compound	Recorded Endpoint	Reported Value
COCCOC(=O)N1C(=O)[C@@]2(c3cc(C#CCC(C(=O)OC)C(=O)OC)ccc31)[C@H](c1ccc(OCCO)cc1)N1[C@H](c3ccccc3)[C@H](c3ccccc3)OC(=O)[C@H]1[C@@H]2C(=O)N1CCN(c2ncccn2)CC1	composite z-score	1.36
[N-]=[N+]=NCc1ccccc1C[C@@]1(C(N)=O)N=C(c2ccc(OCCCO)cc2)O[C@@H]1c1ccccc1CN=[N+]=[N-]	composite z-score	0.448
CN1C(=O)[C@@]2(CCS(=O)(=O)c3ccccc3)N=C(c3ccc(OCCCO)cc3)O[C@H]2c2ccccc21	composite z-score	1.12
NC(N)=NCc1cn(CCc2c[nH]c3ccccc23)nn1	composite z-score	0.689
COCCCNC(=O)[C@@]1(Sc2ccc(C)cc2)CC(=O)N(C2Cc3ccccc3C2)[C@@H]1c1ccc(CO)cc1I	composite z-score	0.693
C=C(/C(=C/C[C@@H](OC(=O)c1ccncc1)c1ccc(OCCO)cc1)c1cc(C(=O)OC)ccc1OC)C(C)C	composite z-score	0.596
CN(C)CCCNC(=O)[C@@H]1c2ccccc2C(=O)N(Cc2ccc(OC(F)(F)F)cc2)[C@H]1c1ccc(CO)cc1	composite z-score	1.33
CCOC(=O)[C@H]1C/C=C/C[C@H](C(=O)OCC)C(=O)O[C@H]2[C@@H](OC)O[C@H](CO)[C@@H](OC(=O)Nc3ccc(OC)cc3)[C@@H]2OC1=O	composite z-score	0.692
O=C1OC[C@@H](c2ccccc2)N2CC(/C=C/c3ccccc3)=CC12 (stereo partly drawn)	composite z-score	-0.0726
CC(C)N1CC=CC23O[C@@H]4C=CCOC(=O)[C@@H]4[C@H]2C(=O)N(C(C)CO)[C@@H]3C1=O (stereo partly drawn)	composite z-score	0.776
COCCCNC(=O)[C@@H]1c2ccccc2C(=O)N(Cc2ccccc2C(F)(F)F)[C@H]1c1ccc(CO)cc1	composite z-score	1.58
CN1C2C=C(CCCO)C(C3C(=O)N(C(N)=O)C(=O)C32)C1c1cccs1 (stereo not drawn)	composite z-score	-0.254
C=C(C(=O)CC[C@H](OC(=O)c1cccnc1)c1cccc(OCCO)c1)C(C)C	composite z-score	1.24
C=CCN1Cc2ccccc2C[C@@]2(N=C(c3ccc(OCCCO)cc3)O[C@H]2c2ccccc2)C1=O	composite z-score	0.907
COCCCNC(=O)[C@]1(Cc2ccccc2N=[N+]=[N-])N=C(c2ccc(OCCCO)cc2)O[C@@H]1c1ccccc1N=[N+]=[N-]	composite z-score	0.707
CCOC(=O)C[C@H]1[C@H](OC(=O)c2ccc(-c3ccccc3)cc2)[C@@H](NC(=O)c2ccc3ccccc3c2)c2cc(OCCCO)ccc2N1C(=O)c1ccc2ccccc2n1	composite z-score	0.33
CO[C@H]1O[C@H](CO)[C@@H](OC(=O)c2ccc(Br)cc2)[C@@H]2OC(=O)[C@@H](Cc3ccc4ccccc4c3)C/C=C/C[C@H](Cc3ccc4ccccc4c3)C(=O)O[C@@H]12	composite z-score	0.995
COc1ccc([Si](C)(C)[C@H]2[C@H](CCn3cc([C@H](O)c4ccccc4)nn3)O[C@@]3(C(=O)N(Cc4ccc(N5CCOC5=O)cc4)c4ccccc43)[C@@H]2C)cc1	composite z-score	-0.215
CC(C)CN1C(=O)[C@@]2(c3ccc([N+](=O)[O-])cc3)CC(=O)N(CC34CC5CC(CC(C5)C3)C4)[C@@H]2c2ccc(CO)cc21	composite z-score	0.984
CCOC(=O)[C@@H]1[C@@H]2C(=O)N(CC)C(=O)[C@@H]2C[C@@H]1Sc1ccccc1	composite z-score	0.667
C=C(COC)/C(=C/C[C@@H](OC(=O)c1ccncc1)c1ccc(CO)o1)c1cnc2ccccc2c1	composite z-score	1.06
COC(=O)[C@@]1(Cc2ccc(OC)cc2)[C@H]2c3cc(C(=O)N(C)C)n(Cc4ccccc4)c3C[C@H]2CN1C(=O)c1ccccc1	composite z-score	0.656
NC(=O)N1C(=O)C2C(C1=O)C1C=C(c3ccc(CO)cc3)C2C(C2CC2)N1Cc1sc2ccccc2c1Cl (stereo not drawn)	composite z-score	0.834

====

# Tested On: Homeobox protein Hox-A13 (Mus musculus) (UniProt Q62424)
# Sequence (Q62424 whole entry, looked up): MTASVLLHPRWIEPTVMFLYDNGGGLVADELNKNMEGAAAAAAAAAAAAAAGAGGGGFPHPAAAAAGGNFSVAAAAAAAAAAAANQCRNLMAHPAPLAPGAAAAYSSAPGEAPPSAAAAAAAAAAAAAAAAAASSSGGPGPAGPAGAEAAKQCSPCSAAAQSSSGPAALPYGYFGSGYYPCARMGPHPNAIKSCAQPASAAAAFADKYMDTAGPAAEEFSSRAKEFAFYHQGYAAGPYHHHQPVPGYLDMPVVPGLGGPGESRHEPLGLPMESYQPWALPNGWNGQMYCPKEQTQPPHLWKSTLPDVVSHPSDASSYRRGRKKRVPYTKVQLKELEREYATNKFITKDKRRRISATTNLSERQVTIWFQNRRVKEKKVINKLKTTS
# Assay Notes: inhibitors of HoxA13-DNA binding, primary screen, biochemical, fluorescence polarization, labeled oligonucleotide (AID 1185)
# Reported Conditions: 15 min, higher = more signal, called active from +8 up or from −8 down
Recorded Endpoint: z-score

> print(dat)
                            chemical.smiles                                 tested.on  recorded.endpoint  reported.value
1  CCOC(=O)C1=CC[C@@H](c2ccccc2C(F)(F)F)N(S(=O)(=O)c2ccc(C)cc2)C1  Homeobox protein Hox-A13 (Mus musculus) (UniProt Q62424)            z-score           -2.64
2  CN(C)CCCNC(=O)[C@@]1(c2ccc([N+](=O)[O-])cc2)CC(=O)N(CC23CC4CC(CC(C4)C2)C3)[C@@H]1c1ccc(CO)cc1  Homeobox protein Hox-A13 (Mus musculus) (UniProt Q62424)            z-score            7.52
3  O=C(O)[C@]1(Cc2ccccc2)N=C(c2ccc(OCCCO)cc2)O[C@@H]1c1ccccc1  Homeobox protein Hox-A13 (Mus musculus) (UniProt Q62424)            z-score           -4.93

====

# Assay Notes: anti-His antibody binders, primary screen, artefact control for SMM control protein annotation, biochemical, small-molecule microarray, 635 nm fluorescence (AID 1128);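 further: score merges feature fluorescence with signal-to-noise for each printed compound spot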
# Reported Conditions: anti-His Alexa647 antibody binding, higher = more signal
Threshold rule: composite z-score greater than or equal to 0.6 is true (1); below that, false (0).

Molecule	Class Assignment
CN(C)CCCCNC(=O)[C@H]1C[C@H]2C(=O)N3CCC[C@H]3C(=O)N2[C@H]1c1ccc(O)cc1	false (0)
C=C(CCCC)C(=O)CC[C@@H](OC(=O)c1ccccc1-c1ccccc1C(=O)O)c1cccc(OCCO)c1	false (0)
O=C1C[C@]2(c3ccc([N+](=O)[O-])cc3)C(=O)N(Cc3ccccc3)c3cc(CO)ccc3[C@H]2N1CC12CC3CC(CC(C3)C1)C2	false (0)
COC(=O)[C@@]1(Cc2ccccc2)[C@H]2c3cc(C(=O)N4CCCC4)n(C[C@H](O)CO)c3C[C@H]2CN1C(=O)c1ccccc1	true (1)
C=CC1c2cc(O)c(OC)cc2CCN1Cc1sc2ccccc2c1Cl (stereo not drawn)	false (0)
CC(C)N1CC=CC23O[C@@H]4C=CCOC(=O)[C@@H]4[C@H]2C(=O)N(C(C)CO)[C@@H]3C1=O (stereo partly drawn)	false (0)
COc1ccccc1CN1C(=O)c2ccccc2[C@@H](C(=O)NC(C)C)[C@@H]1c1ccc(CO)cc1	true (1)
CCOC(=O)C1=CC[C@@H](c2ccccc2)N(S(=O)(=O)c2ccc(C)cc2)C1	false (0)
COC(=O)C(CC#Cc1ccc2c(c1)[C@]1(C(=O)N2)[C@H](C(=O)O)[C@H]2C(=O)O[C@H](c3ccccc3)[C@H](c3ccccc3)N2[C@@H]1c1ccccc1OCCO)C(=O)OC	true (1)
[N-]=[N+]=Nc1ccccc1C[C@]1(C(=O)NCc2ccccc2)N=C(c2ccc(OCCCO)cc2)O[C@H]1c1ccccc1	true (1)
COc1ccc(C#Cc2ccc3c(c2)[C@]2(C(=O)N3)[C@H](C(=O)N3CCc4cc(OC)c(OC)cc4C3)[C@H]3C(=O)O[C@H](c4ccccc4)[C@H](c4ccccc4)N3[C@@H]2c2ccc(O)cc2)cc1	true (1)
COC(=O)C[C@H]1O[C@]2(C(=O)N(C)c3ccccc32)[C@@H](C)[C@@H]1[Si](C)(C)c1ccc(C)cc1	false (0)

====

# Assay Notes: compound binding in COS7 lysate, probe aLAP1, primary screen, cell lysate, small-molecule microarray (AID 1124);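 further: lysate comes from COS7 cells expressing LAP1 and is applied at 0.3 µg/mL; score merges spot fluorescence near 667 nm with signal-to-noise over triplicate slides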
# Reported Conditions: probe aLAP1, fluorescence, higher = more signal
Recorded Endpoint: composite z-score

> print(dat)
                            chemical.smiles  reported.value
1  COC(=O)[C@]1(CCS(=O)(=O)c2ccccc2)N=C(c2ccc(OCCCO)cc2)O[C@@H]1c1ccccc1CN=[N+]=[N-]           0.472
2  COC(=O)[C@@]1(Cc2ccc(OC)cc2)[C@H]2c3cc(C(=O)N4CCCC4)n(CCc4cc5ccccc5[nH]4)c3C[C@H]2CN1C(=O)c1ccccc1           0.816
3  C=CC[C@@]12N=C(c3ccc(OCCCO)cc3)O[C@@H]1c1ccccc1N(CCS(=O)(=O)c1ccccc1)C2=O           0.551
4  CC(C)CN1C(=O)[C@@]2(c3ccc([N+](=O)[O-])cc3)CC(=O)N(CC34CC5CC(CC(C5)C3)C4)[C@@H]2c2ccc(CO)cc21         -0.0349
5  COc1ccc([Si](C)(C)[C@H]2[C@H](CCn3cc([C@H](O)c4ccccc4)nn3)O[C@@]3(C(=O)N(Cc4ccc(N5CCOC5=O)cc4)c4ccccc43)[C@@H]2C)cc1           -1.14
